Target: Cytochrome P450 2C9 (Homo sapiens)
Test: Cytochrome P450 Family 2 Subfamily C Member 9 (CYP2C9) small molecule antagonists: luciferase reporter qHTS assay (AID 1671198); further: nearly all actives have a fitted effect of over 50% in size; further: potency means the concentration at half of the fitted maximal effect
Conditions: P450-Glo CYP2C9 enzyme assay, luciferin luminescence; series mostly up to 115 µM
Description: U.S. Tox21 Program National Center for Advancing Translational Sciences [NCATS] U.S. Environmental Protection Agency [EPA] National Institutes of Environmental Health Sciences [NIEHS] National Toxicology Program [NTP] U.S. Food and Drug Administration [FDA] […] The luciferin products formed are detected with a luciferin detection reagent, and the amount of light produced is proportional to CYP activity. […]
Results filed as inconclusive are left out. Calls of active or inactive are those of the source. The call rests on the fitted dose curve; in most records, active means well fitted inhibition curve with a large enough effect in the repeat runs; inconclusive means weak or mixed curves; inactive means no such curve, though single readings can be large or run the other way.
Endpoint Label: Potency

Completed entries (count: 8):
Compound | Potency
C[Si]1(C)N[Si](C)(C)N[Si](C)(C)N1 | 63.3 µM (active)
CCOC(=O)OCC/C(SC(=O)OCC)=C(\C)N(C=O)Cc1cnc(C)nc1N | inactive
CCCC(C)CC (centres undefined) | inactive
CO[Si](CCCS)(OC)OC | inactive
N#CCCOCCOCCC#N | inactive
CCCCCCCCCCCCC1CO1 (centres undefined) | inactive
CCOC(=O)C(C)(C)C | inactive
CCN(CC)C(=O)C1CN2CCc3cc(OC)c(OC)cc3C2CC1OC(C)=O (centres undefined) | inactive

Query: Give its Potency value. Item: "CCC(C)(C)C1CCC(=O)CC1"
Response: inactive

Query: And then "O=C(O)/C=C/c1ccccc1" , what is it?
Response: inactive

Query: And then "CC(=O)/C=C/c1ccco1" , what is it?
Response: inactive

* * *

Assay: qHTS assay for identifying genotoxic compounds that show differential cytotoxicity against isogenic chicken DT40 cell lines with known DNA damage response pathways - Rev3 mutant cell line (AID 743014); further: nearly all actives have a fitted effect of over 55% in size
Conditions: chicken DT40 Rev3-/- viability, CellTiter-Glo, 40 h; series mostly up to 68.4 µM
Inconclusive results are not listed. Activity calls are given as the source filed them. Calls come from the whole dose curve; as a rule, active = well fitted cell-killing curve with a large enough effect in the repeat runs; inconclusive = weak or mixed curves, or effect the other way; inactive = no such curve, though single readings can be large or run the other way.
Use one of these outcomes when replying: true for active, false for inactive

Molecule | Class Label
C=CCOc1cc(Cl)ccc1C(=O)NCCN(CC)CC | true
O=c1[nH]c(=O)c2[nH]c(=O)[nH]c2[nH]1 | false
Cc1nc2ccccc2c(=O)o1 | false

Query: Can you look up the reported call for "Cc1nc([N+](=O)[O-])cn1-c1ccc([N+](=O)[O-])cc1" for me?
Response: false

Query: And then "CCCCCCCC[Si](OCC)(OCC)OCC" , what is it?
Response: false

Query: And then "Cc1cc(C)cc([N+](=O)[O-])c1" , what is it?
Response: false

Query: And then NC(Cc1c[nH]c2ccccc12)C(=O)O (configuration not stated) , what is it?
Response: false

* * *

Experiment: A CellTox Green Cytotoxicity Assay to monitor cytotoxicity in HEK293 cells - 0 hour (AID 1224869); further: nearly all actives have a fitted effect of over 50% in size
Conditions: CellTox Green fluorescence; series mostly up to 76.8 µM
Calls of active or inactive are those of the source. The call rests on the fitted dose curve; in most records, active means well fitted activation curve with a large enough effect in the repeat runs; inconclusive means weak or mixed curves; inactive means flat fitted curve, though single readings scatter.
Endpoint Label: cytotoxicity

Compound | cytotoxicity
Oc1ccccc1Cc1ccccc1O | inactive
NC(=O)NC(=O)Cc1ccccc1 | inactive
CC(C)(c1ccc(Oc2ccc3c(c2)C(=O)OC3=O)cc1)c1ccc(Oc2ccc3c(c2)C(=O)OC3=O)cc1 | inactive
CC(=O)OC(C(=O)c1ccccc1)c1ccccc1 (configuration not stated) | inactive

Query: Give its cytotoxicity value. Item: "C=C(C)C(=O)OC"
Response: inactive

Query: And then "CCCCCCCCCCCCOC(C)=O" , what is it?
Response: inactive

Query: And then "C[C@H]1O[C@H](O[C@H]2[C@H](O)[C@@H](O)[C@@H](O[C@H]3[C@H](O)[C@@H](O)[C@H](O)O[C@@H]3CO)O[C@@H]2CO)[C@H](O)[C@@H](O)[C@@H]1N[C@H]1C=C(CO)[C@@H](O)[C@H](O)[C@H]1O" , what is it?
Response: inactive
